- protocol notes: chemical genetic growth profiling, strain panel (AID 1159580);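 further: tested at 20 µM; growth read once vehicle control cultures reached saturation at 30 °C; 1 = growth at the plate median or of vehicle wells; lower values mean less growth of the strain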
- settings: S. cerevisiae deletion strains, growth OD, locus YHR205W, strain SCH9, stronger effect = lower value
Screen size: about 5,500 compounds; about 2,000 (36%) were called active. Another 18% or so got no clear call; they are omitted. This is one part of the list.
measurement type: normalized growth

[[record]]
compound = "Cc1csc2c(N3CCN(C(=S)Nc4ccc(C(F)(F)F)cc4)CC3)ncnc12"
recorded_result = 0.919

[[record]]
compound = "CC1SC(c2cccnc2)N(c2ccc(F)cc2F)C1=O (stereo not given)"
recorded_result = 1

[[record]]
compound = "Cc1cc(Sc2c([N+](=O)[O-])cc(C(F)(F)F)cc2[N+](=O)[O-])c(Cl)cc1Cl"
recorded_result = 0.911

[[record]]
compound = "Cc1csc2ncnc(N3CCN(C(=S)Nc4ccc(C(F)(F)F)cc4)CC3)c12"
recorded_result = 0.908

[[record]]
compound = "CC(C)Sc1c(Cl)cccc1NC(=O)Nc1cccc(C(F)(F)F)c1"
recorded_result = 0.891


* * *

- protocol notes: chemical genetic growth profiling, strain panel (AID 1159580);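 further: tested at 20 µM; growth read once vehicle control cultures reached saturation at 30 °C; 1 = growth at the plate median or of vehicle wells; lower values mean less growth of the strain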
- settings: S. cerevisiae deletion strains, growth OD, locus YPR163C, strain tif3
Hit rate of the full screen: of about 5,500 compounds, about 2,000 (36%) were called active. Roughly 18% stayed inconclusive and do not appear here. Cut-off read from the data, not from the text of the source: active = normalized growth mostly below about 0.91 (no sharp cut-off); inconclusive = no clear call, values can overlap the other calls; inactive = mostly above about 0.92. This is one part of the list.
Possible outcomes: active, inactive

[[record]]
compound = "CC(=O)OCC1=C(C(=O)O)N2C(=O)[C@@H](NC(=O)CSc3ccncc3)[C@H]2SC1"
class_label = "inactive"

[[record]]
compound = "NC(Cc1ccc(Cl)cc1)C(=O)O (configuration not stated)"
class_label = "inactive"

[[record]]
compound = "CCCCN(CC)c1c([N+](=O)[O-])cc(C(F)(F)F)cc1[N+](=O)[O-]"
class_label = "inactive"

[[record]]
compound = "Cc1ccc(O)c(C(CCN(C(C)C)C(C)C)c2ccccc2)c1 (configuration not stated)"
class_label = "inactive"

[[record]]
compound = "CN(C)CCC[C@@]1(c2ccc(F)cc2)OCc2cc(C#N)ccc21"
class_label = "inactive"

[[record]]
compound = "CCCCCC/C=C\\CCCCCCCc1cccc(O)c1C(=O)O"
class_label = "inactive"

[[record]]
compound = "O=C(O)CCC(=O)OC[C@@H](NC(=O)C(Cl)Cl)[C@H](O)c1ccc([N+](=O)[O-])cc1"
class_label = "inactive"

[[record]]
compound = "CN1CCN(C2=Nc3cc(Cl)ccc3Nc3ccccc32)CC1"
class_label = "inactive"

[[record]]
compound = "CC(C)C1CCC(C(=O)N[C@@H](Cc2ccccc2)C(=O)O)CC1 (some centres not stated)"
class_label = "inactive"

[[record]]
compound = "COC(=O)C(O)[C@H]1C(C)(C)[C@@H](OC(C)=O)[C@@H]2CC3=C4CC(=O)O[C@@H](c5ccoc5)[C@]4(C)CCC3[C@@]1(C)C2=O (some centres not stated)"
class_label = "inactive"

[[record]]
compound = "CC(=O)Oc1c(C)c(C)c2c(c1C)CCC(C)(CCCC(C)CCCC(C)CCCC(C)C)O2 (configuration not stated)"
class_label = "inactive"

[[record]]
compound = "O=C(Nc1ccc([N+](=O)[O-])cc1Cl)c1cc(Cl)ccc1O"
class_label = "inactive"

[[record]]
compound = "CCCC(=O)Nc1ccc(OCC(O)CNC(C)C)c(C(C)=O)c1 (configuration not stated)"
class_label = "inactive"

[[record]]
compound = "COP(=O)(NC(C)=O)SC (configuration not stated)"
class_label = "inactive"

[[record]]
compound = "COC(=O)C[C@H]1C(C)(C)[C@H](O)[C@@H]2CC3=C4CC(O)O[C@@H](c5ccoc5)[C@]4(C)CCC3[C@@]1(C)C2=O (some centres not stated)"
class_label = "inactive"

[[record]]
compound = "CCC[C@@H]1C[C@@H](C(=O)N[C@H]([C@H]2O[C@H](SC)[C@H](O)[C@@H](O)[C@H]2O)[C@H](C)O)N(C)C1"
class_label = "inactive"

[[record]]
compound = "CC(C)[C@@H]1CC[C@@H](C)C[C@H]1OC(=O)c1ccccc1"
class_label = "inactive"

[[record]]
compound = "CC1(C)CC23C(=O)CCC(O)C2(C)CCC13 (configuration not stated)"
class_label = "inactive"

[[record]]
compound = "CC(=O)OC1CCC23CC1(C)CCC2C(C)(C)CC3OC(C)=O (configuration not stated)"
class_label = "inactive"

[[record]]
compound = "COC(=O)CC1C(C)(C)C(=O)C2CC3(O)C4=CC(=O)OC(c5ccoc5)C4(C)CCC3C1(C)C2=O (configuration not stated)"
class_label = "inactive"

[[record]]
compound = "CC(NC(C)(C)C)C(=O)c1cccc(Cl)c1 (configuration not stated)"
class_label = "inactive"

[[record]]
compound = "CCCN(CCC)c1c([N+](=O)[O-])cc(C(F)(F)F)cc1[N+](=O)[O-]"
class_label = "inactive"

[[record]]
compound = "CC(C)OC(=O)Nc1cccc(Cl)c1"
class_label = "inactive"

[[record]]
compound = "C[C@]12[C@H](O)CC3C(CC[C@@H]4C[C@@H](O)CC[C@]34C)[C@@]1(O)CC[C@@H]2C1=CC(=O)OC1 (some centres not stated)"
class_label = "inactive"

[[record]]
compound = "O=c1c(O)cccc2cc(O)c(O)c(O)c12"
class_label = "active"

[[record]]
compound = "CC(C)Cn1c(=O)n(C)c(=O)c2[nH]cnc21"
class_label = "inactive"

[[record]]
compound = "CC(=O)O[C@@H]1C2CC[C@@H]3C1(C[C@@H](O)[C@@]1(O)[C@@H](C[C@H](O)C1(C)C)[C@]3(C)O)C[C@@]2(C)O (some centres not stated)"
class_label = "inactive"

